Where these numbers come from: BindingDB's records for patent US20240018157

molecular target: Mucosa-associated lymphoid tissue lymphoma translocation protein 1 (Homo sapiens, UniProt Q9UDY8); assay: MALT1 Protease Assay 1
Sequence (Q9UDY8 whole entry): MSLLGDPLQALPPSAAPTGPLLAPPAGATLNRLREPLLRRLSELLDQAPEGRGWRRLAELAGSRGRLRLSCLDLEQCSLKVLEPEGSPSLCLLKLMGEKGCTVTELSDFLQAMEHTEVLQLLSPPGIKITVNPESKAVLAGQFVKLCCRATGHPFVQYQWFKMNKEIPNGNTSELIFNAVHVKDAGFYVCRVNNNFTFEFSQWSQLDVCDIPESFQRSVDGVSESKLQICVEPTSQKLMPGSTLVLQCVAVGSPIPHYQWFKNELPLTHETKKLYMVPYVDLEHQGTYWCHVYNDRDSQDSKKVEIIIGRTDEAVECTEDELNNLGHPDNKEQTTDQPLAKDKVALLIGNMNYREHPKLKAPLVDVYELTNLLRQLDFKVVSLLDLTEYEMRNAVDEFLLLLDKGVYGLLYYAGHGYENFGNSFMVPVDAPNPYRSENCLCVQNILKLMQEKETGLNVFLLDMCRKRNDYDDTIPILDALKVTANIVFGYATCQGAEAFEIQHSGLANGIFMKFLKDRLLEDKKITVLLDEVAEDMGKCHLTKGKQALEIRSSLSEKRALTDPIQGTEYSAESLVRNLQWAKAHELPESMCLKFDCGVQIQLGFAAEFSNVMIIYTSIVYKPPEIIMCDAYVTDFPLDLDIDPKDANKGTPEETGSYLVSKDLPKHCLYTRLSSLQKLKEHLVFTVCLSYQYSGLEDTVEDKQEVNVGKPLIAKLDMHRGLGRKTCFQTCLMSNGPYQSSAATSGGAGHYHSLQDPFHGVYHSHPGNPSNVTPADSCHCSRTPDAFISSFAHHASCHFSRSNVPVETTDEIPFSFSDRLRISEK

{"columns": ["molecule", "IC50"],
 "data": [
  ["O=C(Nc1cnc(-n2nccn2)c(Cl)c1)N1CC(C(F)(F)F)c2c1cnc1cc(Cl)nn21 (stereo not drawn)", "< 10 nM"],
  ["Cc1cc2ncc3c(n2n1)C(C(F)(F)F)CCN3C(=O)Nc1cnc(-n2nccn2)c(Cl)c1 (stereo not drawn)", "< 10 nM"],
  ["Cc1cc2ncc3c(n2n1)[C@@](C)(C(F)(F)F)CN3C(=O)Nc1cnc(-n2nccn2)c(Cl)c1", "10 to 100 nM"],
  ["C[C@]1(C(F)(F)F)CN(C(=O)Nc2cnc(-n3nccn3)c(Cl)c2)c2cnc3cc(F)nn3c21", "10 to 100 nM"],
  ["C[C@@]1(C(F)(F)F)CN(C(=O)Nc2cnc(-n3nccn3)c(C(F)(F)F)c2)c2cnc3cc(Cl)nn3c21", "< 10 nM"],
  ["CC1(C)CCN(C(=O)Nc2cnc(-n3nccn3)c(Cl)c2)c2cnc3cc(Cl)nn3c21", "< 10 nM"],
  ["CC1(C)c2c(cnc3cc(Cl)nn23)N(C(=O)Nc2cnc(-n3nccn3)c(Cl)c2)C[C@@H]1O", "10 to 100 nM"],
  ["C[C@]1(C(F)(F)F)CN(C(=O)Nc2cnc(-n3nccn3)c(Cl)c2)c2cnc3cc(Cl)nn3c21", "10 to 100 nM"],
  ["C[C@H]1CCN(C(=O)Nc2cnc(-n3nccn3)c(Cl)c2)c2cnc3cc(Cl)nn3c21", "10 to 100 nM"],
  ["C[C@@]1(C(F)(F)F)CN(C(=O)Nc2cnc(-n3cccn3)c(Cl)c2)c2cnc3cc(Cl)nn3c21", "< 10 nM"],
  ["CO[C@@H]1CN(C(=O)Nc2cnc(-n3nccn3)c(Cl)c2)c2cnc3cc(Cl)nn3c2C1(C)C", "100 to 1000 nM"],
  ["C[C@@]1(C(F)(F)F)CN(C(=O)Nc2cnc(-n3cc(O)cn3)c(Cl)c2)c2cnc3cc(Cl)nn3c21", "< 10 nM"],
  ["C[C@@]1(C(F)(F)F)CN(C(=O)Nc2cnc([C@@H]3CCCCO3)c(Cl)c2)c2cnc3cc(Cl)nn3c21", "10 to 100 nM"]
]}

###

Each entry below carries its reported IC50.
molecular target: Mucosa-associated lymphoid tissue lymphoma translocation protein 1 (Homo sapiens); assay: MALT1 Protease Assay 2
reportedEndpoint: IC50

{"columns": ["molecule", "recordedResult"],
 "data": [
  ["C[C@@]1(C(F)(F)F)CN(C(=O)Nc2cnc(C3COC3)c(Cl)c2)c2cnc3cc(Cl)nn3c21", "> 1 µM"],
  ["C[C@@]1(C(F)(F)F)CN(C(=O)Nc2ccnc(C(F)F)c2)c2cnc3cc(F)nn3c21", "0.01 to 0.1 µM"],
  ["CN1CC(Oc2cc(C(F)F)cc(NC(=O)N3C[C@@](C)(C(F)(F)F)c4c3cnc3cc(Cl)nn43)n2)C1", "> 1 µM"],
  ["CN1CCOC(c2ncc(NC(=O)N3C[C@@](C)(C(F)(F)F)c4c3cnc3cc(Cl)nn43)cc2Cl)C1 (stereo partly specified)", "> 1 µM"],
  ["C[C@@]1(C(F)(F)F)CN(C(=O)Nc2ccnc(C(F)F)c2)c2cnc3cc(Cl)nn3c21", "< 0.01 µM"],
  ["C[C@]1(C(F)(F)F)CN(C(=O)Nc2cnnc(C(F)F)c2)c2cnc3c(F)c(F)nn3c21", "> 1 µM"]
]}
